details: 298.15 K; 101.33 kPa; Liquid; Vibrating tube method
READOUT NAME: mass density (kg/m3)
Record the value in kg/m3, omitting the unit from your answer.

Solved cases (3 shown):
MOL SMILES: OCCO
VAL: 1107.92
//
MOL SMILES: OCCOCCO
VAL: 1112.56
//
MOL SMILES: OCCOCCOCCO
VAL: 1120.7

Kindly consider the entry below.
Annotate the molecule `OCCCCO` with its measured mass density.
1013.04

---

test: refractive index (Na D-line) (dimensionless); conditions: 298.15 K; 101.33 kPa; Liquid; Standard Abbe refractometry
Quick reference: refractive index of the listed items.
Please respond with just the number, no unit label.

Solved cases (3 shown):
MOL SMILES: OCCOCCO
refractive index: 1.4452

MOL SMILES: OCCCCO
refractive index: 1.4449

MOL SMILES: OCCOCCOCCO
refractive index: 1.4457

Kindly consider the entry below.
Annotate the molecule `OCCO` with its measured refractive index.
1.4312
